System: Boophilus microplus
EXPERIMENT_DESCRIPTION: Test 1: inhibition of oviposition by Boophilus microplus (acetone solution dropped on back of blood-fed females)
CONDITION_SUMMARY: Rhipicephalus microplus, topical, 336 h, read-out: Inhibition Ratio of Oviposition by Boophilus microplus
For each record, write down the corresponding pest or weed control at 110 µg/g.
Give bare numbers, in %.

COMPOUND	pest or weed control at 110 µg/g, %
CCCCCCCCN=C=NC(C)(C)c1ccccc1	100
CCCCCCCN=C=NC(C)(C)c1ccccc1	100
CC1CC(N=C=NC(C)(C)c2ccccc2)CC(C)(C)C1 (centres unmarked)	100
Cc1cc(Cl)ccc1N=CN(C)C [Control Chemical I, reference compound]	78.2
CCCCCCN=C=NC(C)(C)c1ccccc1	96.3
CNC(=O)Oc1cccc2ccccc12 [Control Chemical II, reference compound]	27

State the recorded pest or weed control at 110 µg/g for every item in the following list.
1. CCCN=C=NC(C)(C)c1ccccc1
2. CCCCCCCCCN=C=NC(C)(C)c1ccccc1

Outgoing:
1: 100; 2: 100

---

Test system: Haemaphysalis longicornis
EXPERIMENT_DESCRIPTION: Test 2: killing of tick larvae of Haemaphysalis longicornis (immersion in emulsified aqueous solution)
Type: in vivo
CONDITION_SUMMARY: immersed 2 to 5 minutes, 25° C. for 24 hours, read-out: Combatting Effect of Larvae of Haemaphysalis longicornis (mortality of unfed larvae)
Assign mortality at 100 ppm to each entry below.
Give bare numbers, in %.

These solved cases illustrate the format of a correct answer.
MOLECULE	mortality at 100 ppm, %
COc1ccc(N=C=NC(C)(C)c2ccccc2)c(C)c1	100
CCCCC(CC)CN=C=NC(C)(C)c1ccccc1 (centres unmarked)	100
COc1ccc(N=C=NC(C)(C)c2ccccc2)cc1	96.4
Cc1ccc(N=C=NC(C)(C)c2ccccc2)cc1	86.6
CCCCCCCCCCCCN=C=NC(C)(C)c1ccccc1	82.2
CC(C)(N=C=NCc1ccc(Cl)cc1)c1ccccc1	86.4
CC(C)(N=C=NCc1ccco1)c1ccccc1	91.1
CC(C)(N=C=NCCc1ccccc1)c1ccccc1	100

Batch request: mortality at 100 ppm per item, same order as input.
1. CCCCCCCCCCCCCCCCN=C=NC(C)(C)c1ccccc1
2. CC(C)(C)N=C=NC(C)(C)c1ccccc1
3. CCCCCN=C=NC(C)(C)c1ccccc1

Outgoing:
[80.3, 80.3, 100]

---

Please respond with reported pest or weed control at 110 µg/g for every item in the list.
Test system: Boophilus microplus
EXPERIMENT_DESCRIPTION: Test 1: inhibition of oviposition by Boophilus microplus (acetone solution dropped on back of blood-fed females)
CONDITION_SUMMARY: Rhipicephalus microplus, topical, 336 h, read-out: Inhibition Ratio of Oviposition by Boophilus microplus
The reply should consist of the numeric value with the unit placed after it.

Reference set, count: 5
STRUCTURE_STRING	TEST_TARGET	pest or weed control at 110 µg/g
CC(C)(N=C=NCc1ccccc1)c1ccccc1	Boophilus microplus	81.9%
CCCCCCCCCCCCCCN=C=NC(C)(C)c1ccccc1	Boophilus microplus	85%
CCCCCCCCCCN=C=NC(C)(C)c1ccccc1	Boophilus microplus	93.1%
CC(C)(N=C=NCCc1ccccc1)c1ccccc1	Boophilus microplus	100%
CC(C)(N=C=NC1CCCCC1)c1ccccc1	Boophilus microplus	100%

Next, consider the following compound.
Incoming: Give the value of pest or weed control at 110 µg/g reported for the following: CCCCCCCCCCCCN=C=NC(C)(C)c1ccccc1
Outgoing: 100%

FYI, the data here is from patent US4056631A.
